Biological target: UniProt:P30530
Sequence (P30530 26-894): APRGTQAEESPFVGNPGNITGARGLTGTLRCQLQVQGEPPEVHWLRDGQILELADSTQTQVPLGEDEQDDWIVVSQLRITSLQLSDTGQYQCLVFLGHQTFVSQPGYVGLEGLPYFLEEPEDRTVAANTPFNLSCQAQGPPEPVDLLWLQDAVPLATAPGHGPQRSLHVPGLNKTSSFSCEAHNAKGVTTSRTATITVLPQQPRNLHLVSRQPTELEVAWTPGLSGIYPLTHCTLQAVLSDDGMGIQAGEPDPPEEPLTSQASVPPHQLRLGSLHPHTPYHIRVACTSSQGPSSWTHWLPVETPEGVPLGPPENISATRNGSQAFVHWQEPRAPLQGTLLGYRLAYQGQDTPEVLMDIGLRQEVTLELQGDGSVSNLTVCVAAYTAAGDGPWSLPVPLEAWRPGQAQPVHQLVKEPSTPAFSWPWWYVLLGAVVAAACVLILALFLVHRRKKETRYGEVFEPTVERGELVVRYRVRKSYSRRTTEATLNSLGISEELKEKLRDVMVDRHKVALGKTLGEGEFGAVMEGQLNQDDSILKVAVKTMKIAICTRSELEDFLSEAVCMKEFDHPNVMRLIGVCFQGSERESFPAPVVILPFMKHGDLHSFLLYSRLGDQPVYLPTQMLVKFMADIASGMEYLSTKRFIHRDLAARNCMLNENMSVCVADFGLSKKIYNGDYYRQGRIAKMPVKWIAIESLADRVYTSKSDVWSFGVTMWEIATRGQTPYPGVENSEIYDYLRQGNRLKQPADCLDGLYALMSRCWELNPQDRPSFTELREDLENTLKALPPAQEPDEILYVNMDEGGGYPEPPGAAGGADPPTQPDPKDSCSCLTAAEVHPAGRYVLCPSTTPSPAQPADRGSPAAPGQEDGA
Experiment: Kinase assay at Km ATP (Eurofins Discovery), Axl
Format: biochemical
Conditions: Table 3; Km ATP
measurement.name: IC50

>>> observed("COc1cc(Nc2ncc3ccn([C@H]4CC[C@H](O)CC4)c3n2)cc(N2CCC(N3CCCC3)CC2)c1")
"2020 nM"
>>> observed("COc1cc(Nc2ncc3ccn(-c4nccs4)c3n2)cc(N2CCC(N3CCCC3)CC2)c1")
"247 nM"
>>> observed("COc1cc(Nc2ncc3ccn(-c4ccccc4)c3n2)cc(N2CCC(N3CCCC3)CC2)c1")
"48 nM"
>>> observed("COc1cc(Nc2ncc3ccn(-c4ccc(OC(F)(F)F)cc4)c3n2)cc(N2CCC(N3CCCC3)CC2)c1")
"57 nM"
